Measured epitope binning signal (name and unit not given) values are reported for all entries that follow.
Target: T1, human Tigit extracellular domain recombinant protein hTigit-his (Acrobiosystem, Cat.TIT-H2H3) (human, UniProt Q495A1 22-141)
T1 construct: extracellular domain; Bought; not shown: his tag
T1 sequence (looked up): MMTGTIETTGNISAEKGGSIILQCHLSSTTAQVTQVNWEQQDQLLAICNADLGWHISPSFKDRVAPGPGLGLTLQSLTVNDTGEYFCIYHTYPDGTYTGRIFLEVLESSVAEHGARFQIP
Assay: BLI epitope binning (ForteBIO QKe), hTigit-his on anti-Penta-HIS sensor; competitor R0223
Form rule: numeric answer, no unit written next to it.

Below: 2 binders and their reported epitope binning signal (name and unit not given).
3Tigit-29 mouse monoclonal antibody (antibody, V domains shown, Mouse monoclonal antibody from hybridoma) VH: EVQLQQSGPELVKPGASVKISCKASGYTFTDYNMHWVKQSLGKSLEWIGYVNSFNGNTGYSQKFKSKVTLTVDRSSRTAYMDLRSLTSEDSAVFYCARSSRGGFAYWGQGTLVTVSA VL: QIVLTQSPAIMSASPGEKVTMTCSASSSVSYMHWYQQKSGTSPKRWIYDTSKLASGVPARFSGSVSGTSYSLTISSMEAEDAATYYCQQWSSNSLTFGAGTKLELKR = -0.0018
Tigit-18 (antibody, V domains shown) VH: QVQLQQPGAELVRPGASVKLSCKASGYSFTSYWMNWVKQRPGQGHEWIGMIHLSNSETRLNQNFLDKATLTVDKSSSTVYLQLSSPTSEDSAVYYCARERDYYGSSYFDYWGQGTTLTVSS VL: DIVMTQSPASLVVSLGQRATISCRTSQSVSTSSYSYMHWYQQKPGQPPKLLIKNASNLESGVPARFSASGSGTDFTLNIHPVEEEDAATYYCQHSWEIPRTFGGGTKLEIK = 0.0383

Pending binder:
Exercise: Which epitope binning signal (name and unit not given) is reported for this binder? 3Tigit-12 mouse monoclonal antibody (antibody, V domains shown, Mouse monoclonal antibody from hybridoma) VH: QVQLQQSGAELVRPGTSVKMSCKAAGYTFTNYWIGWVKQRPGHGLEWIGDIYPGGGYTNYDEKFKGKATLTADTSSRTAYMQLSSLTSEDSAIYHCVNGGYGSTYGYFDVWGAGTTVTVSS VL: DIVMSQSPSSLPVSVGEKVTMSCKSSQSLLFSSDQKNYLAWYQQKPGQSPKLLIYWASTRESGVPDRLTGSGSGTDFTLTISSVKAEDLAVYYCQQYHKYPFTFGGGTKLEIKR
Key: 0.01
